- system: thrombin (Homo sapiens, UniProt P00734)
- assay.procedure: Drop test model: migration length of fibrin sealant on a slanted surface (clotting kinetics)
- Type: biochemical
- Parameters: 5 ml of a thrombin solution 5 folds diluted (final: 200 IU/ml)
- run.conditions: dye concentration within the thrombin component 0.01%
endpoint: Migration length (cm)

a: CN(C)c1ccc(C(=C2C=CC(=[N+](C)C)C=C2)c2ccc(N(C)C)cc2)cc1
b: Cc1cc2nc3c(=O)[nH]c(=O)nc-3n(C[C@H](O)[C@H](O)[C@H](O)CO)c2cc1C
c: CN(C)c1ccc(N=Nc2ccc(S(=O)(=O)[O-])cc2)cc1.[Na+] [Methyl Orange, Methyl Orange Sodium Salt]
Order field: Migration length | Direction: descending (largest first) Return the labels ranked in the requested order, please.
a, b, c
